System: Staphylococcus pyogenes C203
Protocol notes: Agar dilution antibacterial test (MIC)
Assay type: cell-based
Run conditions: read-out: MIC
Would you mind telling me the reported MIC of each entry?
Give your result in mg/L as a bare value.

Annotate the molecule N[C@@H](C(=O)N[C@@H]1C(=O)N2C(C(=O)O)=C(C(F)(F)F)CC[C@H]12)c1cccc(F)c1 with its measured MIC.
0.06

Annotate the molecule N[C@@H](C(=O)N[C@@H]1C(=O)N2C(C(=O)O)=C(C(F)(F)F)CC[C@H]12)c1ccccc1 with its measured MIC.
0.06

Annotate the molecule N[C@@H](C(=O)N[C@@H]1C(=O)N2C(C(=O)O)=C(C(F)(F)F)CC[C@H]12)c1cccc(Br)c1 with its measured MIC.
0.125

Annotate the molecule N[C@@H](C(=O)N[C@@H]1C(=O)N2C(C(=O)O)=C(C(F)(F)F)CC[C@H]12)c1ccc(F)cc1 with its measured MIC.
0.06

Annotate the molecule N[C@@H](C(=O)N[C@@H]1C(=O)N2C(C(=O)O)=C(C(F)(F)F)CC[C@H]12)c1ccc(O)cc1 with its measured MIC.
0.025
